src = patent US20180238860A1

For each record, write down the corresponding pH2AX.
# System: HMEC cells
# assay: pH2AX foci 24 h after contacting, Table 4 lower part (HMEC endothelial cells)
# Assay type: cell-based, human
# stated.conditions: line cell blank (below Hasp); 10 μM; 24 hours after contacting
Numbers only, in foci.

Worked cases, answers included:
CC(=O)[O-].CC(=O)[O-].[Cd+2] [Cd-acetate] : 5
[Cl][Cu][Cl] : 1.9
[Cl][Al]([Cl])[Cl] : 3.2
O=[N+]([O-])[O-].O=[N+]([O-])[O-].[Pb+2] : 4
[Cl][Cd][Cl] : 1.9

Alright, here's another compound for you.
### Prompt Any idea what pH2AX was measured for O=S(=O)([O-])[O-].[Cu+2] ?
### Response 2.3
